src = paper PMC6982223

The following molecules are listed with their measured remaining activity at 1000 µM values.
ASSAYED TARGET: Human recombinant poly(ADP-ribose)-polymerase 1 (Homo sapiens, UniProt P09874)
Construct: made in house
Sequence (P09874 whole entry): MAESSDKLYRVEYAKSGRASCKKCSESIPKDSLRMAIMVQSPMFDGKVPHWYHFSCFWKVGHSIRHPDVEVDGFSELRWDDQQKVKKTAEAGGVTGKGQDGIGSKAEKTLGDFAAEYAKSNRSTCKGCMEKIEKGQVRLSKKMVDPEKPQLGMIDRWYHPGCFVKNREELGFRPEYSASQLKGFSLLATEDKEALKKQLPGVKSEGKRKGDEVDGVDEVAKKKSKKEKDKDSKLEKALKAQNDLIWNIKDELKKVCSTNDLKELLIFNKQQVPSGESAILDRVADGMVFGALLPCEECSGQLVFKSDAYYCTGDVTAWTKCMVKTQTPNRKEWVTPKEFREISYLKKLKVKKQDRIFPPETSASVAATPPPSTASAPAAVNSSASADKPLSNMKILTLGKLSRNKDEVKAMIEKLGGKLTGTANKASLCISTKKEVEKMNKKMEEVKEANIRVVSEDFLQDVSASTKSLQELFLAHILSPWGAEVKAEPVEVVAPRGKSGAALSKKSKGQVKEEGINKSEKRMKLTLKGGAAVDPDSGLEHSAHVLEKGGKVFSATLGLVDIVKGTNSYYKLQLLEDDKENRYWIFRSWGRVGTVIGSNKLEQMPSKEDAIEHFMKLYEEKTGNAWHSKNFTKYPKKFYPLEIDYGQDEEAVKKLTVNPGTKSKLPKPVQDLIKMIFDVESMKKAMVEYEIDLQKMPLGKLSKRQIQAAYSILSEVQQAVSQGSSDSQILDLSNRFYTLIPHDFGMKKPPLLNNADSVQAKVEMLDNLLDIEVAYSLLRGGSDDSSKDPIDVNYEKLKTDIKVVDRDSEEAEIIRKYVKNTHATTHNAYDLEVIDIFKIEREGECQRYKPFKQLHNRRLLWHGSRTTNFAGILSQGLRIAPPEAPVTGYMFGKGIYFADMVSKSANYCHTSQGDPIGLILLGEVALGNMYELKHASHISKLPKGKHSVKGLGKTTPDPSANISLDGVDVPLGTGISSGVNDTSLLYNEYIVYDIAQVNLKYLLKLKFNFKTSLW
ASSAY INFO: autopoly(ADP-ribosyl)ation of PARP-1, [32P]NAD+ incorporation
Format: biochemical
APPLIED CONDITIONS: in the presence of 1 mM compound; read-out: Residual PARP-1 activity (converted)
Method: The oligonucleotides were purchased from Biosset (Novosibirsk, Russia). […] The reaction of autopoly(ADP-ribosyl)ation was carried out as follows: for PARP-1 50 mM tris-HCl, pH 8.0, 20 mM MgCl2, 150 mM NaCl, and 7 mM β-mercaptoethanol, activated DNA 2 OE/mL, 0.3 mM [^32P] […] IC50 values were calculated using the Origin Pro 8.0 software by nonlinear regression analysis.
Returns: string containing the number followed by the unit.

Take a look at these entries with their results.
>>> print(df.to_string())
                                   molecule              recorded_endpoint  recorded_measurement
0  Nc1ncnc2c1ncn2[C@H]1CNC[C@@H](CO)O1 [Compound 11A]  remaining activity at 1000 µM                   82%
1  Cc1cn(C2CNCC(COP(=O)(O)OP(=O)(O)OCC3OC(n4cnc5c(N)ncnc54)C(O)C3O)O2)c(=O)[nH]c1=O (centres unmarked)  remaining activity at 1000 µM                   40%
2  Nc1ncnc2c1ncn2C1OC(COP(=O)(O)OP(=O)(O)OCC2CNCC(n3cc(Br)c(=O)[nH]c3=O)O2)C(O)C1O (centres unmarked)  remaining activity at 1000 µM                   36%
3  Nc1ncnc2c1ncn2C1OC(COP(=O)(O)OP(=O)(O)NCC2CNCC(n3ccc(=O)[nH]c3=O)O2)C(O)C1O (centres unmarked) [Compound 10U]  remaining activity at 1000 µM                   89%
4  Nc1nc2c(ncn2C2CNCC(CNP(=O)(O)OP(=O)(O)OCC3OC(n4cnc5c(N)ncnc54)C(O)C3O)O2)c(=O)[nH]1 (centres unmarked) [Compound 10G]  remaining activity at 1000 µM                   74%
5  Nc1ncnc2c1ncn2C1OC(COP(=O)(O)OP(=O)(O)OCC2CNCC(n3ccc(=O)[nH]c3=O)O2)C(O)C1O (centres unmarked)  remaining activity at 1000 µM                   93%

# input Bench note: what remaining activity at 1000 µM did Nc1ncnc2c1ncn2C1OC(COP(=O)(O)OP(=O)(O)NCC2CNCC(n3cc(Cl)c(=O)[nH]c3=O)O2)C(O)C1O (centres unmarked) show?
# output 46%

# input Bench note: what remaining activity at 1000 µM did Nc1ncnc2c1ncn2C1CNCC(COP(=O)(O)OP(=O)(O)OCC2OC(n3cnc4c(N)ncnc43)C(O)C2O)O1 (centres unmarked) show?
# output 80%

# input Bench note: what remaining activity at 1000 µM did O=c1ccn([C@H]2CNC[C@@H](CO)O2)c(=O)[nH]1 [Compound 11U] show?
# output 91%

# input Bench note: what remaining activity at 1000 µM did Nc1ccn(C2CNCC(COP(=O)(O)OP(=O)(O)OCC3OC(n4cnc5c(N)ncnc54)C(O)C3O)O2)c(=O)n1 (centres unmarked) show?
# output 96%

# input Bench note: what remaining activity at 1000 µM did Nc1ncnc2c1ncn2C1OC(COP(=O)(O)OP(=O)(O)NCC2CNCC(n3cc(Br)c(=O)[nH]c3=O)O2)C(O)C1O (centres unmarked) show?
# output 60%

# input Bench note: what remaining activity at 1000 µM did Nc1nc2c(ncn2C2CNCC(COP(=O)(O)OP(=O)(O)OCC3OC(n4cnc5c(N)ncnc54)C(O)C3O)O2)c(=O)[nH]1 (centres unmarked) show?
# output 45.5%

# input Bench note: what remaining activity at 1000 µM did Nc1ccn(C2CNCC(CNP(=O)(O)OP(=O)(O)OCC3OC(n4cnc5c(N)ncnc54)C(O)C3O)O2)c(=O)n1 (centres unmarked) [Compound 10C] show?
# output 87.5%

# input Bench note: what remaining activity at 1000 µM did Nc1ncnc2c1ncn2C1OC(COP(=O)(O)OP(=O)(O)OCC2CNCC(n3cc(Cl)c(=O)[nH]c3=O)O2)C(O)C1O (centres unmarked) show?
# output 57.5%
